Cited source for all entries: PubChem BioAssay AID1963962

# Tested on: 967376-340-R-J2-PDC multicell spheroid viability;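 also: luminescence used as surrogate of cell viability; spheroids exposed to agents for 7 days before read-out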
# testDetails: Anticancer human tumor 967376-340-R-J2-PDC patient-derived colon adenocarcinoma cell line growth inhibition [PI3K]
# conditionLabel: second compound 0.0316 µM; first compound 0.0316 µM; stronger effect = lower value
Label yes when viability, T/C < 80%; otherwise no.

CC(=O)c1c(C)c2cnc(Nc3ccc(N4CCNCC4)cn3)nc2n(C2CCCC2)c1=O + COc1c(OCCCN2CCOCC2)ccc2c3n(c(=NC(=O)c4cnc(N)nc4)nc12)CCN3	no
Cn1nccc1Nc1nccc(-c2ccn(C(CO)c3ccc(Cl)c(F)c3)c(=O)c2)n1 (stereo not given) + COc1c(OCCCN2CCOCC2)ccc2c3n(c(=NC(=O)c4cnc(N)nc4)nc12)CCN3	yes
C=CC(=O)N1CCN(c2nc(=O)n(-c3c(C)ccnc3C(C)C)c3nc(-c4c(O)cccc4F)c(F)cc23)C(C)C1 (stereo not given) + CC(Nc1ncnc2nc[nH]c12)c1cc2cccc(Cl)c2c(=O)n1-c1ccccc1	no

Next, consider the following compound.
Determine if CCCS(=O)(=O)Nc1ccc(F)c(C(=O)c2c[nH]c3ncc(-c4ccc(Cl)cc4)cc23)c1F + CC(Nc1ncnc2nc[nH]c12)c1cc2cccc(Cl)c2c(=O)n1-c1ccccc1 shows viability, T/C strictly lower than 80%. no
